Origin of measurements: PubChem BioAssay

For each entry below, report its composite z-score value.
tested on: Fibrinogen (Alexa647-labelled); test: Alexa647-fibrinogen binding to printed small molecules – biochemical, small-molecule microarray, 635/667 nm fluorescence, artefact control for SMM control-protein annotation, profiling panel (AID 1131); conditions: fibrinogen-A647 binding fluorescence, higher = more signal;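 note: z-score merges 667 nm fluorescence with per-spot signal-to-noise over triplicate slides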
Respond with the number and no other words.

Which composite z-score value belongs to CCOC(=O)C1=CC[C@@H](c2ccccc2)N(S(=O)(=O)c2ccc(C)cc2)[C@H]1c1ccccc1 ?
0.915

Follow-up entry: Cc1ccc(N2C(=O)c3ccccc3[C@@H](C(=O)NCCCN(C)C)[C@@H]2c2ccc(CO)cc2)nc1
0.442

Follow-up entry: CCOC(=O)C[C@H]1[C@H](OC(=O)c2ccc(-c3ccccc3)cc2)[C@@H](NC(=O)CC(C)C)c2cc(OCCCO)ccc2N1C(=O)c1ccc2ccccc2n1
0.944

Follow-up entry: C=C(COC)/C(=C/C[C@H](OC(=O)c1ccncc1)c1ccc(CO)o1)c1cnc2ccccc2c1
0.271

Follow-up entry: CC(CO)N1C(=O)[C@@H]2[C@H]3C(=O)OCC=C[C@H]3OC23C=CCN(Cn2nnc4ccccc42)C(=O)[C@@H]13 (some centres undefined)
-0.8

Follow-up entry: COc1cccc(C)c1NC(=O)O[C@H]1[C@H](OC(=O)Nc2ccc3c(c2)OCO3)[C@@H](OC(=O)Nc2ccc3c(c2)OCO3)[C@@H](OC)O[C@@H]1CO
0.988

Follow-up entry: CCCCCCCCCCC(O)C1C=CC2C(=O)N(c3ccccc3)C(=O)C2N1Nc1ccc(C#N)cc1 (centres undefined)
0.989

Follow-up entry: CN1C(=O)C2C=CC(C(O)c3cccn3C)N(Nc3ccc([N+](=O)[O-])cc3[N+](=O)[O-])C2C1=O (centres undefined)
-0.232

Follow-up entry: C#Cc1cc2ccccc2oc1=O
-1.03

Follow-up entry: COCCOC(=O)N1C(=O)[C@@]2(c3cc(C#CCCO)ccc31)[C@H](c1ccc(OCCO)cc1)N1[C@H](c3ccccc3)[C@H](c3ccccc3)OC(=O)[C@H]1[C@@H]2C(=O)Nc1nc2ccccc2s1
0.817

Follow-up entry: COc1cccc(C)c1NC(=O)O[C@H]1[C@H](OC(=O)Nc2ccccc2-c2ccccc2)[C@H](OC(=O)Nc2ccccc2-c2ccccc2)[C@@H](OC)O[C@@H]1CO
0.974

Follow-up entry: CCCCC(CC)C(O)C1C=CC2C(=O)N(c3ccccc3)C(=O)C2N1Nc1ccc(C#N)cc1 (centres undefined)
0.922

Follow-up entry: C=CCC(OC(C)=O)[C@@H]1[C@@H](N(Cc2cccc3ccccc23)C(=O)Cc2ccc(OC)cc2)c2cc(OCCCO)ccc2N1C(=O)c1ccc(-c2ccccc2)cc1 (some centres undefined)
0.701

Follow-up entry: COCC(=C=CC[C@H](O)c1ccc(CO)o1)CCO
0.501

Follow-up entry: [N-]=[N+]=NCc1ccccc1[C@H]1OC(c2ccc(OCCCO)cc2)=N[C@@]1(Cc1ccccc1N=[N+]=[N-])C(=O)NCC(O)CO (some centres undefined)
0.711

Follow-up entry: COc1ccc([Si](C)(C)[C@H]2[C@H](CC(=O)N3CCC[C@H]3CO)O[C@@]3(C(=O)N(Cc4ccc(N5CCOC5=O)cc4)c4ccccc43)[C@@H]2C)cc1
0.692

Follow-up entry: CCCC=C(CCC)[C@@H](NC(=O)c1cccs1)c1ccc(C(=O)OC)cc1
0.686

Follow-up entry: C=CCOC(=O)[C@@H]1[C@H]2C(=O)O[C@H](c3ccccc3)[C@H](c3ccccc3)N2[C@H](c2ccc(OCCOC(=O)[C@@H]3C[C@@H]4C(=O)N[C@@H](CCCC[N+](C)(C)C)C(=O)N4[C@@H]3c3ccc(O)cc3)cc2)[C@@]12C(=O)Nc1ccc(I)cc12
0.412

Follow-up entry: O=C1O[C@@H](c2ccccc2)[C@@H](c2ccccc2)N2[C@@H](c3ccc(OCCO)cc3)[C@]3(C(=O)Nc4ccc(C#CC5=CCCCC5)cc43)[C@@H](C(=O)NC[C@H](O)c3ccccc3)[C@H]12
0.829

Follow-up entry: CC1CC/C=C\[C@H]2OC34C=CCN(C(C)(C)C)C(=O)[C@H]3N(CCCCCO)C(=O)[C@@H]4C2C(=O)O1 (some centres undefined)
-1.65

Follow-up entry: CO[C@H]1O[C@H](CO)[C@@H](OC(=O)Nc2ccccc2)[C@H](OC(=O)c2cc3ccccc3[nH]2)[C@H]1OC(=O)c1cc2ccccc2[nH]1
0.475

Follow-up entry: CN(C)c1ccc(C(O)C2C=CC3C(=O)NC(=O)C3N2Nc2ccccn2)cc1 (centres undefined)
0.309

Follow-up entry: CCCC[C@@H]1C[C@H]1[C@@H](NC(=O)c1cccs1)c1ccccc1C(F)(F)F
0.982

Follow-up entry: Cc1ccc(NN2C(C(O)c3c(F)cccc3Cl)C=CC3C(=O)N(C4CCCCC4)C(=O)C32)cc1 (centres undefined)
1.04
